# procedure_details: Lipophilicity as chromatographic mobility, RP-18 HPLC retention time
# Assay type: physicochemical
# condition_parameters: MeCN/0.1 M Et3NH+OAc− (35:65, v/v, pH 7.0)
attribute_measured: RP-18 HPLC tR (min)

I. CC(C)=CCC/C(C)=C/CC/C(C)=C/Cn1c(=O)c(F)cn([C@@H]2O[C@H](CO)[C@H]3OC(C)(C)O[C@H]32)c1=O
II. CCCC1(CCC)OC2C(O1)[C@@H](CO)O[C@H]2n1cc(F)c(=O)n(C/C=C(\C)CC/C=C(\C)CCC=C(C)C)c1=O (some centres unmarked)
In: Between I and II , which one has the lower reported RP-18 HPLC tR value? API: response body contains the label of the selected item.
Out: I

I. CC(C)=CCC/C(C)=C/CC/C(C)=C/Cn1c(=O)c(F)cn([C@@H]2O[C@H](CO)[C@@H](O)[C@H]2O)c1=O
II. O=c1[nH]c(=O)n([C@@H]2O[C@H](CO)[C@@H](O)[C@H]2O)cc1F [Compound 1a, 5-Fluorouridine, reference compound]
In: Between I and II , which one has the lower reported RP-18 HPLC tR value? API: response body contains the label of the selected item.
Out: II
(II: 1 min, I: 27 min)

----------
# procedure_details: Acidic stability (hydrolysis) of the O-2′,3′-ketal group
# Format: physicochemical
# condition_parameters: 1N aqueous HCl/MeCN 1:1 (v/v), RP-18 HPLC, calculated graphically; read-out: half-life under acidic conditions
attribute_measured: half-life

In: Look up half-life for this compound: CCOC(=O)CCC1(C)OC2C(O1)[C@@H](CO)O[C@H]2n1cc(F)c(=O)[nH]c1=O (stereo partly shown) [Compound 28a]
Out: ~5 h
